Provenance of the data: PubChem BioAssay

Target: Cellular tumor antigen p53 (Homo sapiens)
Test: kinase inhibitors altering GFP-p53 stability in HPV16-positive cells, imaging, known kinase inhibitor set, EGFP/DsRed ratio (AID 1053116);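 further: test concentration not given here; cells exposed to compounds for 24 h at 37 °C before reading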
Conditions: stronger effect = higher value; measured here: GFP-p53 positive objects count
Items are presented alongside their recorded EGFP object count.
ASSAY_METRIC: EGFP object count

INSERT INTO measurements (smiles_text, measured_result) VALUES
  ('COc1ccc(-c2nn3ncccc3c2-c2ccnc(Nc3ccc(Cl)c(C(F)(F)F)c3)n2)cc1', 2.5),
  ('COc1cccc(/C=N/Nc2ncnc3c2cnn3-c2cccc(OC)c2)c1', 9),
  ('Cc1nnc(-c2cccc(-c3ccc(C(=O)NCC4CC4)cc3)c2)o1', 4),
  ('Cc1ccc(C(=O)NC2CCC2)cc1-c1ccc(C(=O)NCC2CC2)cc1', 2),
  ('Cn1cc(C2=C(c3ccsc3)C(=O)NC2=O)c2ccccc21', 3.5),
  ('CS(=O)(=O)CCCn1c(=O)c(Oc2ccc(F)cc2F)cc2cnc(NC3CCOCC3)nc21', 1),
  ('O=C1NC(=NCCc2cccc(Cl)c2)SC1=Cc1ccc2ncccc2c1', 15),
  ('COc1cc(/C=N/Nc2ncnc3c2cnn3C(C)C)ccc1O', 6.5),
  ('Fc1cccc(COc2ccc(Nc3ncncc3C#Cc3ccccc3)cc2Cl)c1', 4),
  ('Fc1ccc(-c2ncn(C3CCNCC3)c2-c2ccnc(Oc3ccc(Oc4ccccc4)cc3)n2)cc1', 28.5),
  ('O=C(Nc1n[nH]c2nc(-c3ccco3)c(Br)cc12)C1CC1', 4);
